# pIC50 values compiled below
- Study System: KRAS-G12D (Homo sapiens, UniProt P01116, G12D)
- Sequence (P01116 with tags, fused parts or gaps isoform P01116-2 G12D): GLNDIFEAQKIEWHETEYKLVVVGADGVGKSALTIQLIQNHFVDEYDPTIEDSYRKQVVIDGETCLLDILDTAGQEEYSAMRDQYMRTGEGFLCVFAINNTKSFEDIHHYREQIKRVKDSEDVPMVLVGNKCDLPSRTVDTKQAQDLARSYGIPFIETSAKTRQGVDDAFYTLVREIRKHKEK
- Protocol Summary: SOS-catalyzed nucleotide exchange assay (Procedure A, TR-FRET), KRAS-G12D
- Assay type: biochemical
- Measurement Setup: nucleotide exchange, read-out: KRAS G12D GNE IC50
Quick note: pIC50 values are minus log10 of concentrations in mol/L.

Illustrative cases are given below, each with its answer.
pIC50 reading for CN(C)C1CC(F)(F)C2C[C@]12COc1nc(N2CCOC[C@@](C)(O)C2)c2c(n1)sc1c(-c3c(C4(F)CC4)c(Cl)cc4[nH]ncc34)nccc12 (some centres unmarked) [Ex-270] : 8.06

// recorded pIC50 for CC1(C)C2CN(C[C@@]3(COc4nc(N5CCOC[C@@](C)(O)C5)c5c(n4)sc4c(-c6c(C7(F)CC7)c(Cl)cc7[nH]ncc67)nccc45)CC3(F)F)CC21 (some centres unmarked) : 7.56

Entry Cc1cc2[nH]nc(C)c2c(-c2nccc3c4c(N5CCOC[C@@](C)(O)C5)nc(OC[C@@]56CCCN5C[C@H](F)C6)nc4n(C)c23)c1C(F)F (single isomer, unassigned) ; pIC50 = 5.82

# pIC50 of C[C@@]1(O)COCCN(c2nc(OC[C@]3(CN4C[C@@H]5CCCO[C@H]5C4)CC3(F)F)nc3sc4c(-c5c(C6(F)CC6)c(Cl)cc6[nH]ncc56)nccc4c23)C1 = 8.30

pIC50 recorded for this compound, C[C@@]1(O)COCCN(c2nc(OC[C@]34C[C@@H](F)CN3CC3(CC3)C4)nc3sc4c(-c5c(C6CC6)c(Cl)cc6[nH]ncc56)nccc4c23)C1 , is 7.56

get_value(item= C[C@@]1(O)COCCN(c2nc(OC[C@]3(CN4CCC5(CC4)CC5)CC3(F)F)nc3sc4c(-c5c(C6(F)CC6)c(Cl)cc6[nH]ncc56)nccc4c23)C1 , readout=pIC50) returns 8.00

Consider C=C(C)c1c(C)cc2[nH]ncc2c1-c1nccc2c1oc1nc(OC[C@]3(CN(C)C)CC3(F)F)nc(N3CCOC[C@@](C)(O)C3)c12 . Its measured pIC50 is 6.83

According to the records, this compound C[C@@]1(O)COCCN(c2nc(OC[C@@]34CCCN3C[C@H](F)C4)nc3sc4c(-c5c(-c6ccco6)c(C(F)(F)F)cc6[nH]ncc56)nccc4c23)C1 displays pIC50 of 7.02

Value of pIC50 reported for the compound Cc1cc2[nH]ncc2c(-c2nccc3c2sc2nc(OC[C@@]45CCCN4C[C@H](F)C5)nc(N4CCOC[C@@](C)(O)C4)c23)c1C1CCCC1 is 6.55

Given item C#Cc1c(F)ccc2cc3[nH]ncc3c(-c3nccc4c3sc3nc(OC[C@@]56CCCN5C[C@H](F)C6)nc(N5CCOC[C@@](C)(O)C5)c34)c12 , the value recorded as its pIC50 is 8.61

Then there is this compound:
According to the records, this compound CCC1(O)COCCN(c2nc(OC[C@@]34CCCN3C[C@H](F)C4)nc3sc4c(-c5c(C(F)(F)F)c(C)cc6[nH]ncc56)nccc4c23)C1 (some centres unmarked) displays pIC50 of 6.55
